# PROTOCOL: Human hepatocyte clearance (relay assay)
# REPORTED CONDITIONS: human, cryopreserved human primary hepatocytes (relay assay), CLint, donor HC02
OUTCOME MEASURE: hepatocyte CLint (µL/min/1e6 cells)

{"columns": ["SMI", "OBSERVED"],
 "data": [
  ["CCOc1ccc2ccc(=O)oc2c1", 21.2]
]}

----------
# PROTOCOL: Human hepatocyte clearance (relay assay)
# REPORTED CONDITIONS: human, % Remaining, 10 µM, hepatocyte donor HC425, 24 h, single replicates
OUTCOME MEASURE: remaining at 24 h, 10 µM (%)

{"columns": ["COMPOUND", "OBSERVED"],
 "data": [
  ["CCOc1ccc2ccc(=O)oc2c1 [7-Ethoxycoumarin]", 33.1]
]}
